I'd appreciate it if you could supply pIC50 values for the items below.
- System: SGC-7901
- Test Name: Cytotoxicity against human SGC-7901 cells assessed as cell inhibition measured after 72 hrs by MTT assay
- Format: functional, cell-based
- Applied Conditions: SGC-7901, 72 h
In plain terms, pIC50 is the concentration in mol/L turned into minus its base-10 logarithm.

Exercise: Which pIC50 value belongs to `Cn1c2ccccc2c2ccnc(C(=O)c3ccc(OCc4ccccc4)cc3)c21` ?
Key: 4.40

Exercise: Look up pIC50 for this molecule: `O=C(c1ccc(OCc2ccccc2)cc1)c1nccc2c1[nH]c1ccccc12`
Key: 4.26

Exercise: // returns reported pIC50 for input `O=C(c1ccccc1)c1nccc2c1[nH]c1ccccc12`
Key: 3.46

Exercise: If you can, please state the reported pIC50 value of `Cc1cccc(Cn2c3ccccc3c3ccnc(C(=O)c4ccccc4)c32)c1` .
Key: 4.60

Exercise: Look up pIC50 for this molecule: O=C(c1ccc(O)cc1)c1nccc2c1[nH]c1ccccc12 [EUDISTOMIN Y1]
Key: 3.92

Exercise: Fill in the blank: the reported pIC50 of `O=C(c1ccccc1)c1nccc2c3ccccc3n(Cc3ccc([N+](=O)[O-])cc3)c12` is ____.
Key: 5.15

Exercise: # input molecule: O=c1[nH]cc(F)c(=O)[nH]1 [FLUOROURACIL] ; wanted: its pIC50
Key: 4.88

Exercise: Which measured pIC50 value corresponds to `O=C(c1ccccc1)c1nccc2c3ccccc3n(Cc3cccc(F)c3)c12` ?
Key: 4.55

Exercise: I would be grateful if you could share the reported pIC50 for `Cc1cccc(Cn2c3ccccc3c3ccnc(C(=O)c4ccc(O)cc4)c32)c1` .
Key: 4.56

Exercise: Look up pIC50: `COc1ccc(Cn2c3ccccc3c3ccnc(C(=O)c4ccccc4)c32)cc1`
Key: 4.92
